Exercise: state measured pest or weed control at 280.212 g/ha for each of the molecules provided.
- System: barnyardgrass
- experiment.notes: Preemergent control of plant species
- Assay type: in vivo, Echinochloa crusgalli
- experimental.setup: Echinochloa crus-galli, pre-emergence, 336 h; 0.25 lb/acre; read-out: percent preemergent control
Give the quantity in %, number only.

[ask] I'd like to know its pest or weed control at 280.212 g/ha. The molecule in question is `CCc1cccc(CC)c1NS(=O)(=O)c1nc2nc(C)cc(C)n2n1`
[reply] 50

[ask] I'd like to know its pest or weed control at 280.212 g/ha. The molecule in question is `Cc1ccn2nc(S(=O)(=O)N(c3c(F)cccc3F)S(=O)(=O)c3ccccc3)nc2n1`
[reply] 100

[ask] I'd like to know its pest or weed control at 280.212 g/ha. The molecule in question is `Cc1ccn2nc(S(=O)(=O)Nc3c(C)cccc3C#N)nc2n1`
[reply] 60

[ask] I'd like to know its pest or weed control at 280.212 g/ha. The molecule in question is `Cc1cc(C)n2nc(S(=O)(=O)Nc3c(F)cccc3C(=O)OC(C)C)nc2n1`
[reply] 97

[ask] I'd like to know its pest or weed control at 280.212 g/ha. The molecule in question is `Cc1ccnc2nc(S(=O)(=O)Nc3c(F)cccc3Cl)nn12`
[reply] 20

[ask] I'd like to know its pest or weed control at 280.212 g/ha. The molecule in question is `Cc1cccc(Cl)c1NS(=O)(=O)c1nc2nc(C)c(C)c(C)n2n1`
[reply] 20

[ask] I'd like to know its pest or weed control at 280.212 g/ha. The molecule in question is `Cc1cc(C)n2nc(S(=O)(=O)Nc3ccccc3I)nc2n1`
[reply] 80

[ask] I'd like to know its pest or weed control at 280.212 g/ha. The molecule in question is `Cc1cc(C)n2nc(S(=O)(=O)Nc3c(C)cccc3Cl)nc2n1`
[reply] 100

[ask] I'd like to know its pest or weed control at 280.212 g/ha. The molecule in question is `COc1ccc(Cl)c(NS(=O)(=O)c2nc3nc(C)ccn3n2)c1Cl`
[reply] 40

* * *

- System: corn
- experiment.notes: Preemergent control of plant species
- Type: in vivo, Zea mays
- experimental.setup: Zea mays, pre-emergence, 336 h; 0.25 lb/acre; read-out: percent preemergent control
measured.quantity: plant injury at 280.212 g/ha (%)
Give the quantity in %, number only.

[ask] Can you look up plant injury at 280.212 g/ha on corn for `Cc1cc(C)n2nc(S(=O)(=O)Nc3c(Cl)cc(F)cc3Cl)nc2n1` ?
[reply] 10

[ask] Can you look up plant injury at 280.212 g/ha on corn for `Cc1cc(C)n2nc(S(=O)(=O)Nc3ccccc3I)nc2n1` ?
[reply] 0

[ask] Can you look up plant injury at 280.212 g/ha on corn for `Cc1nc2nc(S(=O)(=O)Nc3c(Cl)cccc3Cl)nn2c(C)c1C` ?
[reply] 35

[ask] Can you look up plant injury at 280.212 g/ha on corn for `O=S(=O)(Nc1c(Cl)cccc1Cl)c1nc2ncccn2n1` ?
[reply] 0

[ask] Can you look up plant injury at 280.212 g/ha on corn for `CC=CC(=O)N(c1c(F)cccc1F)S(=O)(=O)c1nc2nc(C)ccn2n1` ?
[reply] 80

[ask] Can you look up plant injury at 280.212 g/ha on corn for `Cc1cc(C)n2nc(S(=O)(=O)Nc3c(Cl)cccc3Cl)nc2n1` ?
[reply] 50

[ask] Can you look up plant injury at 280.212 g/ha on corn for `CCOCCOC(=O)c1cccc(C)c1NS(=O)(=O)c1nc2nc(C)cc(C)n2n1` ?
[reply] 90

[ask] Can you look up plant injury at 280.212 g/ha on corn for `Cc1cnc2nc(S(=O)(=O)Nc3c(Cl)ccc(C)c3Cl)nn2c1` ?
[reply] 0

[ask] Can you look up plant injury at 280.212 g/ha on corn for `Cc1nc2nc(S(=O)(=O)Nc3ccccc3C(F)(F)F)nn2c(C)c1C` ?
[reply] 50

* * *

- System: pigweed
- experiment.notes: Preemergent control of plant species
- Assay type: in vivo, Amaranthus spp.
- experimental.setup: Amaranthus retroflexus, pre-emergence, 336 h; 0.25 lb/acre; read-out: percent preemergent control
measured.quantity: pest or weed control at 280.212 g/ha (%)
Give the quantity in %, number only.

[ask] I'd like to know its pest or weed control at 280.212 g/ha. The compound in question is Cc1cc(C)n2nc(S(=O)(=O)Nc3cccc(Cl)c3Cl)nc2n1 [Compound 19]
[reply] 90

[ask] I'd like to know its pest or weed control at 280.212 g/ha. The compound in question is Cc1cc(C)n2nc(S(=O)(=O)Nc3c(Cl)cc(F)cc3Cl)nc2n1 [Compound 44]
[reply] 95

[ask] I'd like to know its pest or weed control at 280.212 g/ha. The compound in question is Cc1cc(C)n2nc(S(=O)(=O)Nc3c(Cl)cccc3Br)nc2n1 [Compound 39]
[reply] 100

[ask] I'd like to know its pest or weed control at 280.212 g/ha. The compound in question is CCc1cccc(CC)c1NS(=O)(=O)c1nc2nc(C)cc(C)n2n1 [Compound 33]
[reply] 10

[ask] I'd like to know its pest or weed control at 280.212 g/ha. The compound in question is Cc1cc(C)n2nc(S(=O)(=O)Nc3c(F)cccc3F)nc2n1 [Compound 25]
[reply] 100

[ask] I'd like to know its pest or weed control at 280.212 g/ha. The compound in question is Cc1cc(C)n2nc(S(=O)(=O)Nc3ccc(Cl)cc3C(F)(F)F)nc2n1 [Compound 34]
[reply] 50

[ask] I'd like to know its pest or weed control at 280.212 g/ha. The compound in question is Cc1nc2nc(S(=O)(=O)Nc3ccccc3C(F)(F)F)nn2c(C)c1C [Compound 112]
[reply] 90

[ask] I'd like to know its pest or weed control at 280.212 g/ha. The compound in question is COCc1cccc(Cl)c1NS(=O)(=O)c1nc2nc(C)cc(C)n2n1 [Compound 91]
[reply] 100

[ask] I'd like to know its pest or weed control at 280.212 g/ha. The compound in question is Cc1cccc(Cl)c1NS(=O)(=O)c1nc2nc(C)c(C)c(C)n2n1 [Compound 113]
[reply] 100

[ask] I'd like to know its pest or weed control at 280.212 g/ha. The compound in question is COC(=O)c1cccc(F)c1NS(=O)(=O)c1nc2nc(C)cc(C)n2n1 [Compound 26]
[reply] 100

[ask] I'd like to know its pest or weed control at 280.212 g/ha. The compound in question is Cc1cc(C)n2nc(S(=O)(=O)Nc3ccccc3C(F)(F)F)nc2n1 [Compound 13]
[reply] 95

[ask] I'd like to know its pest or weed control at 280.212 g/ha. The compound in question is Cc1cc(C)n2nc(S(=O)(=O)Nc3ccccc3[N+](=O)[O-])nc2n1 [Compound 12]
[reply] 60

[ask] I'd like to know its pest or weed control at 280.212 g/ha. The compound in question is Cc1nc2nc(S(=O)(=O)Nc3c(Cl)cccc3Cl)nn2c(C)c1C [Compound 111]
[reply] 50

[ask] I'd like to know its pest or weed control at 280.212 g/ha. The compound in question is Cc1cc(C)n2nc(S(=O)(=O)Nc3ccccc3Br)nc2n1 [Compound 41]
[reply] 0

[ask] I'd like to know its pest or weed control at 280.212 g/ha. The compound in question is COc1cc(C)n2nc(S(=O)(=O)Nc3c(Cl)cccc3Cl)nc2n1 [Compound 178]
[reply] 60

[ask] I'd like to know its pest or weed control at 280.212 g/ha. The compound in question is Cc1cc(C)n2nc(S(=O)(=O)Nc3c(F)cccc3C(=O)OC(C)C)nc2n1 [Compound 51]
[reply] 100

[ask] I'd like to know its pest or weed control at 280.212 g/ha. The compound in question is COC(=O)c1cccc(C)c1NS(=O)(=O)c1nc2nc(C)cc(C)n2n1 [Compound 50]
[reply] 100

[ask] I'd like to know its pest or weed control at 280.212 g/ha. The compound in question is Cc1cc(C)n2nc(S(=O)(=O)Nc3ccccc3I)nc2n1 [Compound 6]
[reply] 100

* * *

- Test system: nitrification of ammonium nitrogen
- experiment.notes: Suppression of nitrification of ammonium nitrogen in soil
- experimental.setup: 10 ppm, 27° C.
measured.quantity: % NH4-N Remaining After 2 Weeks Incubation (%)
Give the quantity in %, number only.

[ask] I'd like to know its % NH4-N Remaining After 2 Weeks Incubation. The compound in question is `Cc1cc(C)n2nc(S(=O)(=O)Nc3ccccc3Br)nc2n1`
[reply] 100

[ask] I'd like to know its % NH4-N Remaining After 2 Weeks Incubation. The compound in question is Cc1ccn2nc(S(=O)(=O)Nc3ccccc3[S+]([O-])C(F)(F)C(F)F)nc2n1 (stereo not drawn)
[reply] 62

[ask] I'd like to know its % NH4-N Remaining After 2 Weeks Incubation. The compound in question is `Cc1cc(C)n2nc(S(=O)(=O)Nc3ccc(Cl)cc3)nc2n1`
[reply] 50

[ask] I'd like to know its % NH4-N Remaining After 2 Weeks Incubation. The compound in question is `Cc1cc(Cl)c(NS(=O)(=O)c2nc3nc(C)cc(C)n3n2)c(Cl)c1`
[reply] 92

[ask] I'd like to know its % NH4-N Remaining After 2 Weeks Incubation. The compound in question is `Cc1cc(C)n2nc(S(=O)(=O)Nc3ccc(Cl)cc3C(F)(F)F)nc2n1`
[reply] 90

[ask] I'd like to know its % NH4-N Remaining After 2 Weeks Incubation. The compound in question is `Cc1cc(C)n2nc(S(=O)(=O)Nc3c(C)cccc3C(N)=O)nc2n1`
[reply] 100

[ask] I'd like to know its % NH4-N Remaining After 2 Weeks Incubation. The compound in question is `Cc1cc(C)n2nc(S(=O)(=O)Nc3c(C)cccc3C)nc2n1`
[reply] 100

[ask] I'd like to know its % NH4-N Remaining After 2 Weeks Incubation. The compound in question is `Cc1cc(C)n2nc(S(=O)(=O)Nc3ccccc3)nc2n1`
[reply] 75

[ask] I'd like to know its % NH4-N Remaining After 2 Weeks Incubation. The compound in question is `Cc1ccn2nc(S(=O)(=O)Nc3c(Cl)cccc3Cl)nc2n1`
[reply] 100
